System: BT-549
Assay: Cytotoxicity against human BT549 cells after 48 hrs by SRB assay
Assay type: functional
Conditions: BT-549, 48 h
test_readout: GI50 (nM)
Give bare numbers, in nM.

Sample records with GI50:
molecule="O=CN1N=C(c2ccc(Nc3ccnc4cc(Cl)ccc34)cc2)CC1c1ccc(Cl)cc1 (stereo unspecified)" test_readout=GI50 result_value=4770
molecule="COc1ccc(C2CC(c3ccc(Nc4ccnc5cc(Cl)ccc45)cc3)=NN2C=O)cc1 (stereo unspecified)" test_readout=GI50 result_value=10900
molecule="COc1cc(C2CC(c3cccc(Nc4ccnc5cc(Cl)ccc45)c3)=NN2C=O)cc(OC)c1OC (stereo unspecified)" test_readout=GI50 result_value=390
molecule="COc1cccc2c1C(=O)c1c(O)c3c(c(O)c1C2=O)C[C@@](O)(C(=O)CO)C[C@@H]3O[C@H]1C[C@H](N)[C@H](O)[C@H](C)O1 [DOXORUBICIN]" test_readout=GI50 result_value=230
molecule="O=CN1N=C(c2cccc(Nc3ccnc4cc(Cl)ccc34)c2)CC1c1ccccc1 (stereo unspecified)" test_readout=GI50 result_value=210
molecule="COc1ccc(C2CC(c3cccc(Nc4ccnc5cc(Cl)ccc45)c3)=NN2C=O)cc1 (stereo unspecified)" test_readout=GI50 result_value=450
molecule="O=CN1N=C(c2cccc(Nc3ccnc4cc(Cl)ccc34)c2)CC1c1ccc(Cl)cc1 (stereo unspecified)" test_readout=GI50 result_value=1360
molecule="O=CN1N=C(c2ccc(Nc3ccnc4cc(Cl)ccc34)cc2)CC1c1ccccc1 (stereo unspecified)" test_readout=GI50 result_value=3810
molecule="Cc1ccc(C2CC(c3ccc(Nc4ccnc5cc(Cl)ccc45)cc3)=NN2C=O)cc1 (stereo unspecified)" test_readout=GI50 result_value=1650
molecule="COc1cc(C2CC(c3ccc(Nc4ccnc5cc(Cl)ccc45)cc3)=NN2C=O)cc(OC)c1OC (stereo unspecified)" test_readout=GI50 result_value=1910

Q: Any idea what GI50 was measured for CC(=O)N1N=C(c2ccc(Nc3ccnc4cc(Cl)ccc34)cc2)CC1c1ccc(Cl)cc1 (stereo unspecified) ?
Result: 5400
